- Assayed system: human TRPA1 (Homo sapiens, UniProt O75762)
- Construct: expressed in transfected cells; host or cells: Human embryonic kidney-derived 293T cells, transiently transfected with the pcDNA3.1/zeo(+) human TRPA1 plasmid
- Sequence (O75762 whole entry): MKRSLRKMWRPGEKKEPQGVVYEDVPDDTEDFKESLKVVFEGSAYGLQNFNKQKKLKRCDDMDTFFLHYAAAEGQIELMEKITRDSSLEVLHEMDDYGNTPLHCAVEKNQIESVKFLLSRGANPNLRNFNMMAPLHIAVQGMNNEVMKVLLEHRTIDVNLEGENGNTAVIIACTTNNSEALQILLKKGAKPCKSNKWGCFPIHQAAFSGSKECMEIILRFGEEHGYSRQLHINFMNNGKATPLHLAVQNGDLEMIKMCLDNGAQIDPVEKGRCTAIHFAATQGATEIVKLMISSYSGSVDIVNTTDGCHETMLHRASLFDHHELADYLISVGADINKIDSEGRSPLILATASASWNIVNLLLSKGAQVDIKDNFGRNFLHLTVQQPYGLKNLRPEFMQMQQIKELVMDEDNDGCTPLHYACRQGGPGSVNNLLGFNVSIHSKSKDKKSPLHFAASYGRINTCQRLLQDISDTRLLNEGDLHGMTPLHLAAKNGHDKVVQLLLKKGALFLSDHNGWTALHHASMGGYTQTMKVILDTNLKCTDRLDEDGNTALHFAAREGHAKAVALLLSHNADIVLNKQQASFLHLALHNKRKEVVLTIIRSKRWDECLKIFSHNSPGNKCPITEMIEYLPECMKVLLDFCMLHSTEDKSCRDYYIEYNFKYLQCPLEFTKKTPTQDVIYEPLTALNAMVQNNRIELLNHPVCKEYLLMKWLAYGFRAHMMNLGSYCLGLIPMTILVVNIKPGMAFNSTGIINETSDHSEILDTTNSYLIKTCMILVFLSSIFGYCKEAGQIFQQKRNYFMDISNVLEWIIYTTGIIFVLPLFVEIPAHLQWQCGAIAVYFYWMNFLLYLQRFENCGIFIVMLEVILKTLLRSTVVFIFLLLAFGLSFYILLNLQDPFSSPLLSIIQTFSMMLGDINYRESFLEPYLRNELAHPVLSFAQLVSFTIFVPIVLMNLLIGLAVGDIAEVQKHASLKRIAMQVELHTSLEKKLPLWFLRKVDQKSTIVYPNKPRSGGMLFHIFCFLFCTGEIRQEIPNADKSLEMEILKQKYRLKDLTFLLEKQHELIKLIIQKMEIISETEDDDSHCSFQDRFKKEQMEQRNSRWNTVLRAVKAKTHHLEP
- Assay notes: Measurement of TRPA1 antagonist activity (intracellular calcium increase, FLIPR, allylisothiocyanate stimulation)
- Assay type: cell-based
- Stated conditions: 293T cells transfected with human TRPA1; allylisothiocyanate 20 μM; concentration for 50% inhibitory rate; read-out: antagonism hTRPA1
Parameter: log10 of IC50. Scope: all listed entries.
Could you please treat all values as log10 of IC50 in nM?

Endpoint output: log10 of IC50 of COc1ccccc1OCc1ccc(CNC(=O)[C@@H]2CCCN2S(=O)(=O)c2ccc(Cl)s2)cc1 [Example 62] . Value?
3.04

What do you get for O=C(NCc1ccc(OCc2cccc(C(F)(F)F)c2)cc1)[C@@H]1CCCN1S(=O)(=O)c1ccc(Cl)s1 [Example 93] ?
3.62

What do you get for O=C(NCc1ccc(Oc2ccc(OC(F)(F)F)cc2)cc1)[C@@H]1CCCN1S(=O)(=O)c1ccc(Cl)s1 [Example 3] ?
1.94

What do you get for COC(=O)c1ccccc1OCc1ccc(CNC(=O)[C@@H]2CCCN2S(=O)(=O)c2ccc(Cl)s2)cc1 [Example 66] ?
2.89

What do you get for COC(=O)c1cccc(OCc2ccc(CNC(=O)[C@@H]3CCCN3S(=O)(=O)c3ccc(Cl)s3)cc2)c1 [Example 58] ?
2.49

What do you get for Cc1ccc(OCc2ccc(CNC(=O)[C@@H]3CCCN3S(=O)(=O)c3ccc(Cl)s3)cc2)cc1 [Example 44] ?
2.83

What do you get for O=C(NCc1ccc(Oc2ccc(C(F)(F)F)cc2)cc1)[C@@H]1CCCN1S(=O)(=O)c1ccc(Cl)s1 [Example 2] ?
2.32

====

- Assayed system: human TRPA1 (Homo sapiens, UniProt O75762)
- Construct: expressed in transfected cells; host or cells: Human embryonic kidney-derived 293T cells, transiently transfected with the pcDNA3.1/zeo(+) human TRPA1 plasmid
- Assay notes: Measurement of TRPA1 antagonist activity (intracellular calcium increase, FLIPR, allylisothiocyanate stimulation)
- Format: cell-based
- Stated conditions: allylisothiocyanate 20 μM stimulation, FLIPR calcium assay; read-out: antagonism hTRPA1
Assay readout: IC50 (nM)
Provide the reading as a plain figure in nM.

Compound | IC50, nM
O=C(NCc1cccc(Oc2ccc(C(F)(F)F)cc2)c1)[C@@H]1CCCN1S(=O)(=O)c1ccoc1 | 96
C[C@@H](Oc1cccc(CNC(=O)[C@@H]2CCCN2S(=O)(=O)c2ccc(F)cc2)c1)c1ccccn1 | 9800
O=C(NCc1cccc(Oc2ccc(C(F)(F)F)cc2)c1)[C@@H]1CC(F)CN1S(=O)(=O)c1ccc(F)cc1 (stereo in doubt) | 280

Endpoint output: IC50 of "O=C(NCc1cccc(OCc2ccc(C(F)(F)F)cc2)c1)[C@@H]1CCCN1S(=O)(=O)c1ccco1" . Value?
36

====

Parameter: pIC50. Scope: all listed entries.
- Assayed system: human TRPA1 (Homo sapiens)
- Construct: expressed in transfected cells; host or cells: Human embryonic kidney-derived 293T cells, transiently transfected with the pcDNA3.1/zeo(+) human TRPA1 plasmid
- Assay notes: Measurement of TRPA1 antagonist activity (intracellular calcium increase, FLIPR, allylisothiocyanate stimulation)
- Assay type: cell-based
- Stated conditions: 293T cells transfected with human TRPA1; allylisothiocyanate 20 μM; concentration for 50% inhibitory rate; read-out: antagonism hTRPA1
Note on pIC50: it is the negative log10 of concentration, concentration in mol/L.

Guide cases for pIC50, answers given:
Chem smiles | pIC50
COC(=O)c1ccc(OCc2ccc(CNC(=O)[C@@H]3CCCN3S(=O)(=O)c3ccc(Cl)s3)cc2)cc1 | 6.20
O=C(NCc1ccc(COc2ccccc2)cc1Cl)[C@@H]1CCCN1S(=O)(=O)c1ccc(Cl)s1 | 6.82
O=C(NCc1cccc(OCc2ccc(F)cc2)c1)[C@@H]1CCCN1S(=O)(=O)c1ccc(Cl)s1 | 7.92

Endpoint output: pIC50 of "O=C(NCc1cccc(Oc2ccc(OC(F)(F)F)cc2)c1)[C@@H]1CCCN1S(=O)(=O)c1ccc(Cl)s1" . Value?
7.00

What do you get for "O=C(NCc1ccc(Oc2cccc(C(F)(F)F)c2)cc1)[C@@H]1CCCN1S(=O)(=O)c1ccc(Cl)s1" ?
7.00

What do you get for "O=C(NCc1ccc(COc2ccc(F)cc2)cc1)[C@@H]1CCCN1S(=O)(=O)c1ccc(Cl)s1" ?
6.41

What do you get for "O=C(NCc1nc(COc2ccccc2C(F)(F)F)cs1)[C@@H]1CCCN1S(=O)(=O)c1ccc(Cl)s1" ?
6.82

What do you get for "O=C(NCc1ccc(Oc2ccccc2)cc1)[C@@H]1CCCN1S(=O)(=O)c1ccc(Cl)s1" ?
6.66

What do you get for "O=C(NCc1ccc(Oc2cccc(C(F)(F)F)c2)cc1)[C@@H]1CCN1S(=O)(=O)c1ccc(Cl)s1" ?
6.05

What do you get for "O=C(NCc1ccc(OCc2ccccc2C(F)(F)F)cc1)[C@@H]1CCCN1S(=O)(=O)c1ccc(Cl)s1" ?
6.43

What do you get for "O=C(NCc1ccccc1COc1ccccc1)[C@@H]1CCCN1S(=O)(=O)c1ccc(Cl)s1" ?
5.66

====

- Assayed system: human TRPA1 (Homo sapiens, UniProt O75762)
- Construct: expressed in transfected cells; host or cells: Human embryonic kidney-derived 293T cells, transiently transfected with the pcDNA3.1/zeo(+) human TRPA1 plasmid
- Assay notes: Measurement of TRPA1 antagonist activity (intracellular calcium increase, FLIPR, allylisothiocyanate stimulation)
- Format: cell-based
- Stated conditions: allylisothiocyanate 20 μM stimulation, FLIPR calcium assay; read-out: antagonism hTRPA1
pIC50: −log10 of the molar value.
I would appreciate it if you labelled entries criterion met when pIC50 is 7 or higher, otherwise criterion not met.

// known answers, use as guide
Compound | Assayed system | Assigned category
O=C(NCc1cccc(OCc2ccc(C(F)(F)F)nc2)c1)[C@@H]1CCCN1S(=O)(=O)c1ccc(F)cc1 [Example 134] | human TRPA1 (Homo sapiens, UniProt O75762) | criterion met
O=C(NCc1cccc(OCc2ccc(C(F)(F)F)cc2)c1)[C@@H]1CCCN1S(=O)(=O)c1cccs1 [Example 200] | human TRPA1 (Homo sapiens, UniProt O75762) | criterion met
O=C(NCc1cccc(OCc2ccc(C(F)(F)F)cc2)c1)[C@@H]1CC=CCN1S(=O)(=O)c1ccc(F)cc1 [Example 213] | human TRPA1 (Homo sapiens, UniProt O75762) | criterion not met

Has O=C(NCc1ccc(Oc2cccc(C(F)(F)F)c2)cc1)[C@@H]1CCCN1S(=O)(=O)c1ccco1 [Example 152] a recorded pIC50 greater than or equal to 7?
criterion not met

What do you get for O=C(NCc1cccc(Oc2ccc(C(F)(F)F)cc2)c1)[C@@H]1CCCN1S(=O)(=O)c1ccsc1 [Example 190] ?
criterion met

What do you get for CC(Oc1cccc(CNC(=O)[C@@H]2CCCN2S(=O)(=O)c2ccc(F)cc2)c1)c1ccccc1 (stereo in doubt) [Example 143] ?
criterion not met

What do you get for O=C(NCc1cccc(OCc2cccc(N3CCCCC3)c2)c1)[C@@H]1CCCN1S(=O)(=O)c1ccc(F)cc1 [Example 126] ?
criterion met

What do you get for O=C(NCc1cccc(Oc2ccc(C(F)(F)F)nc2)c1)[C@@H]1CCCN1S(=O)(=O)c1ccc(F)cc1 [Example 115] ?
criterion not met

What do you get for O=C(NCc1cccc(Oc2ccc(C(F)(F)F)cc2)c1)[C@@H]1C=CCN1S(=O)(=O)c1ccco1 [Example 160] ?
criterion not met

What do you get for O=C(NCc1cccc(OCc2ccc(C(F)(F)F)cc2)c1)[C@@H]1CCCN1S(=O)(=O)c1ccc2ncccc2c1 [Example 207] ?
criterion not met

====

Parameter: IC50. Scope: all listed entries.
- Assayed system: human TRPA1 (Homo sapiens, UniProt O75762)
- Construct: expressed in transfected cells; host or cells: Human embryonic kidney-derived 293T cells, transiently transfected with the pcDNA3.1/zeo(+) human TRPA1 plasmid
- Assay notes: Measurement of TRPA1 antagonist activity (intracellular calcium increase, FLIPR, allylisothiocyanate stimulation)
- Format: cell-based
- Stated conditions: 293T cells transfected with human TRPA1; allylisothiocyanate 20 μM; concentration for 50% inhibitory rate; read-out: antagonism hTRPA1
- Experimental: Measurement of TRPA1 Antagonist Activity Human TRPA1 Expression Plasmid […] The 384 well plate was recovered, and the medium was removed. […] Then, allylisothiocyanate (12.5 μL) at a final concentration of 20 μM was added by a fluorescence imaging plate reader (manufactured by Molecular Device, FLIPR), and changes in the relative fluorescence intensity were measured for 5 min. […]

Guide cases for IC50, answers given:
Chem smiles | Assayed system | IC50
O=C(NCc1ccc(F)c(Oc2ccc(C(F)(F)F)cc2)c1F)[C@@H]1CCCN1S(=O)(=O)c1ccc(Cl)s1 | human TRPA1 (Homo sapiens, UniProt O75762) | 220 nM
O=C(NCc1ccc(COc2cccc(Cl)c2)cc1)[C@@H]1CCCN1S(=O)(=O)c1ccc(Cl)s1 | human TRPA1 (Homo sapiens, UniProt O75762) | 250 nM
O=C(NCc1cccc(OCc2ccccc2)c1)[C@@H]1CCCN1S(=O)(=O)c1ccc(Cl)s1 | human TRPA1 (Homo sapiens, UniProt O75762) | 22 nM
O=C(NCc1c(F)ccc(OCc2ccc(C(F)(F)F)cc2)c1Cl)[C@@H]1CCCN1S(=O)(=O)c1ccc(Cl)s1 | human TRPA1 (Homo sapiens, UniProt O75762) | 1200 nM
O=C(NCc1ccc(COc2ccc3ncccc3c2)cc1)[C@@H]1CCCN1S(=O)(=O)c1ccc(Cl)s1 | human TRPA1 (Homo sapiens, UniProt O75762) | 4400 nM

Would you kindly look at the next entry?
Look up IC50 with human TRPA1 (Homo sapiens, UniProt O75762) for this molecule: "O=C(NCc1ccc(COc2ccccc2)cc1)[C@@H]1CCCN1S(=O)(=O)c1ccc(Cl)s1"
310 nM
